B1: C22orf15 (parent)
chain: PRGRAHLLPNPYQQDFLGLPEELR

- Variants of: B1
- Protocol details: protein stability index of a GFP-peptide fusion (GPS, HEK-293T) (PSI 1-6); higher = more stable;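 also: lentivirally expressed fusions sorted by FACS into six bins by GFP to DsRed ratio, PSI derived from sequencing read proportions per bin multiplied by bin number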
- Stated conditions: c terminus: a fixed tail appended
Measured attribute: protein stability index
Numbers only.

The examples below pair each entry with its known result.
mutation_name=R4D measured_attribute="protein stability index" measured_result=4.25
mutation_name=A5E measured_attribute="protein stability index" measured_result=3.9
mutation_name=R24H measured_attribute="protein stability index" measured_result=3.3

Read the next record carefully.
Query: // lookup protein stability index for `P20S`
Response: 3.39
